# Tested on: HepG2
# Protocol Notes: cytotoxicity call (relative viability < 0.9)
# Assay Conditions: 10 µM
Screen size: about 39,000 compounds; about 3,300 (8.5%) were called active. This is one part of a sample in which actives are shown more often than they occur.
Measurement Kind: cytotoxicity call

These recorded examples may help you get a feel for the data.
Compound | Measurement Kind | Value Observed
COc1ccc(S(=O)(=O)N(C)C[C@H]2Oc3c(NS(=O)(=O)c4ccc(C)cc4)cccc3C(=O)N([C@@H](C)CO)C[C@@H]2C)cc1 | cytotoxicity call | inactive
O=C(Nc1ccc(Cl)cc1C(=O)c1ccc(Cl)cc1)c1cc(Br)ccc1NS(=O)(=O)c1ccc(Cl)cc1 | cytotoxicity call | active
C[C@@H]1CN([C@@H](C)CO)C(=O)Cc2cc(NC(=O)Nc3ccc(C(F)(F)F)cc3)ccc2O[C@H]1CN(C)C(=O)Nc1ccc(F)cc1 | cytotoxicity call | inactive
C[C@H]1CN([C@@H](C)CO)C(=O)c2cccc(NS(=O)(=O)c3ccc(Cl)cc3)c2O[C@H]1CN(C)Cc1ccc(C(=O)Nc2ccccc2N)cc1 | cytotoxicity call | inactive
O=C(Nc1cc(Cl)ccc1Cl)c1cc(Cl)ccc1NS(=O)(=O)c1ccc(Cl)c([N+](=O)[O-])c1 | cytotoxicity call | active

`NS(=O)(=O)c1ccc(F)c([N+](=O)[O-])c1` yielded cytotoxicity call of inactive

`COc1ccc(C#Cc2ccc3c(c2)[C@]2(C(=O)N3)[C@H](C(=O)N3CCN(c4ncccn4)CC3)[C@H]3C(=O)O[C@H](c4ccccc4)[C@H](c4ccccc4)N3[C@@H]2c2ccccc2OCCO)cc1` yielded cytotoxicity call of inactive

====

# System: HepG2
# Protocol Notes: cytotoxicity call (relative viability < 0.9)
# Assay Conditions: 10 µM
The campaign covered roughly 39,000 compounds. About 3,300 (8.5%) were called active. What follows is part of a selection rich in actives, with near analogues and random picks from the rest.
Use one of these outcomes when replying: active, inactive

Chemical String | Classification
COc1ccc(NC(=O)Nc2ccc3c(c2)CC(=O)N([C@@H](C)CO)C[C@H](C)[C@@H](CN(C)Cc2ccc(Cl)c(Cl)c2)O3)cc1 | active
C=CCN(C(=O)[C@H]1N(C(C)(C)CO)C(=O)[C@H]2[C@H](C(=O)O)[C@@H]3C=C[C@@]21O3)C(C)(C)C | inactive

Consider the additional compound presented here.
**Q:** Dear all, I need the recorded test outcome for `CC(=O)OCCc1nc(C(=O)NCc2ccc3c(c2)OCO3)cc2c1[C@@H](CCO)N([S@](=O)C(C)(C)C)C2` , thank you.
**A:** inactive

====

# Test system: HepG2
# Protocol Notes: cytotoxicity call (relative viability < 0.9)
# Assay Conditions: 10 µM
The campaign covered roughly 39,000 compounds. About 3,300 (8.5%) were called active. This excerpt belongs to a sample that is enriched for actives.
Use one of these outcomes when replying: label 1 for active, label 0 for inactive

Please review the entries below; each comes with its answer.
Compound | Classification
Cc1ccc(-c2csc(-c3ccc(CN)cc3)n2)cc1 | label 0
C[C@@H]1CN([C@H](C)CO)C(=O)Cc2cc(NC(=O)CCCN(C)C)ccc2O[C@H]1CN(C)Cc1ccc(Oc2ccccc2)cc1 | label 1
COc1ccccc1C#Cc1ccc2c(c1)O[C@@H](CN(C)Cc1cccnc1)[C@@H](C)CN([C@@H](C)CO)S2(=O)=O | label 1
CON=C1CC2(CC3CC(CC=C(C)CC(C)C=CC=C4COC5C(O)C(C)=CC(C(=O)O3)C45O)O2)OC(C(C)=CC(C)C)C1C (configuration not stated) | label 1

**Q:** Dear all, I need the recorded test outcome for `CO[C@H]1C[C@H](O[C@H]2[C@H](C)O[C@@H](O[C@@H]3/C(C)=C/C[C@@H]4C[C@@H](C[C@]5(C=C[C@H](C)[C@@H](C6CCCCC6)O5)O4)OC(=O)[C@@H]4C=C(C)[C@@H](O)[C@H]5OC/C(=C\C=C\[C@@H]3C)[C@]54O)C[C@@H]2OC)O[C@@H](C)[C@@H]1O` , thank you.
**A:** label 0

**Q:** Dear all, I need the recorded test outcome for `C[C@@H]1CN([C@H](C)CO)C(=O)c2cc(NS(=O)(=O)c3cn(C)cn3)ccc2O[C@H]1CN(C)C(=O)NC1CCCCC1` , thank you.
**A:** label 0

**Q:** Dear all, I need the recorded test outcome for `C[C@@H]1CN([C@@H](C)CO)C(=O)c2cc(NC(=O)Nc3ccccc3)ccc2O[C@@H](C)CCCCO[C@@H]1CN(C)C(=O)Nc1ccccc1` , thank you.
**A:** label 0

====

# System: HepG2
# Protocol Notes: cytotoxicity call (relative viability < 0.9)
# Assay Conditions: 10 µM
In all, about 39,000 compounds went through this assay and about 3,300 (8.5%) were called active. Only a selection was taken, and actives are over-represented in it overall.
Use one of these outcomes when replying: Yes = active, No = inactive

Chemical String | Classification
C[C@H]1CN([C@@H](C)CO)C(=O)Cc2cc(NC(=O)C3CCCCC3)ccc2O[C@H]1CN(C)Cc1ccc(C(F)(F)F)cc1 | No
COc1ccccc1CNC(=O)C[C@H]1CC[C@H]2[C@@H](COC[C@H](O)CN2C(=O)Nc2ccc(F)cc2)O1 | Yes
C[C@H](CO)N1C[C@H](C)[C@H](CN(C)Cc2ccc(C(F)(F)F)cc2)Oc2ccc(NC(=O)C3CCCCC3)cc2CC1=O | No
COc1ccccc1CNC(=O)C[C@@H]1CC[C@H]2[C@@H](COC[C@H](O)CN2C(=O)Nc2ccc(F)cc2)O1 | No
C=c1cc(C)ccc1=C1NN=C(NC(C)=O)O1 | No

Consider the additional molecule presented here.
**Q:** Dear all, I need the recorded test outcome for `C[C@H](CO)N1C[C@H](C)[C@H](CN(C)S(=O)(=O)c2ccc3c(c2)OCCCO3)OCc2cnnn2CCCC1=O` , thank you.
**A:** No

====

# Test system: HepG2
# Protocol Notes: cytotoxicity call (relative viability < 0.9)
# Assay Conditions: 10 µM
Screen size: about 39,000 compounds; about 3,300 (8.5%) were called active. Only a selection was taken, and actives are over-represented in it overall.
Use one of these outcomes when replying: YES (active), NO (inactive)

Please review the entries below; each comes with its answer.
Chemical String | Classification
C[C@@H]1CN([C@@H](C)CO)C(=O)Cc2cc(NC(=O)Nc3ccccc3)ccc2O[C@H]1CN(C)C(=O)Nc1cccc2ccccc12 | NO
C[C@H]1CN([C@@H](C)CO)S(=O)(=O)c2ccc(C#Cc3ccc(F)cc3)cc2O[C@H]1CN(C)S(=O)(=O)c1ccc(F)cc1 | NO
Cc1ccc(S(=O)(=O)N(C)C[C@H]2Oc3ncc(Br)cc3C(=O)N([C@H](C)CO)C[C@@H]2C)cc1 | NO
C[C@@H]1CCCCO[C@H](CN(C)S(=O)(=O)c2ccc(F)cc2)[C@H](C)CN([C@@H](C)CO)C(=O)c2cc(NC(=O)Nc3ccc(C(F)(F)F)cc3)ccc2O1 | YES
C[C@@H]1CN([C@H](C)CO)S(=O)(=O)c2ccc(C#Cc3ccncc3)cc2O[C@H]1CN(C)S(=O)(=O)c1ccc(F)cc1 | YES

**Q:** Dear all, I need the recorded test outcome for `COc1cccc(NC(=O)N[C@@H]2CC[C@H](CC(=O)N3CCOCC3)O[C@H]2CO)c1` , thank you.
**A:** NO

**Q:** Dear all, I need the recorded test outcome for `CC(C)CC#Cc1ccc2c(c1)O[C@H](CN(C)S(=O)(=O)c1ccc(F)cc1)[C@@H](C)CN([C@@H](C)CO)S2(=O)=O` , thank you.
**A:** NO

**Q:** Dear all, I need the recorded test outcome for `Cc1ccc(S(=O)(=O)N(C)C[C@H]2Oc3ccc(NC(=O)NC(C)C)cc3C(=O)N([C@@H](C)CO)C[C@@H]2C)cc1` , thank you.
**A:** NO

**Q:** Dear all, I need the recorded test outcome for `C[C@@H]1CCCCO[C@@H](CN(C)C(=O)CCC(F)(F)F)[C@@H](C)CN([C@H](C)CO)C(=O)c2cc(NC(=O)Nc3ccc(F)cc3)ccc2O1` , thank you.
**A:** NO

**Q:** Dear all, I need the recorded test outcome for `COCCNC(=O)C[C@H]1CC[C@@H]2[C@H](COC[C@H](O)CN2S(=O)(=O)c2ccccc2C)O1` , thank you.
**A:** NO

**Q:** Dear all, I need the recorded test outcome for `C[C@@H]1CCCCO[C@H](CN(C)Cc2ccncc2)[C@@H](C)CN([C@@H](C)CO)C(=O)c2cc(NC(=O)Nc3ccc(F)cc3)ccc2O1` , thank you.
**A:** NO

**Q:** Dear all, I need the recorded test outcome for `CCN1C[C@]23CN(C(=O)c4ccn[nH]4)C[C@@H](C[C@H]2S1(=O)=O)O3` , thank you.
**A:** NO

**Q:** Dear all, I need the recorded test outcome for `C[C@H](CO)N1C[C@H](C)[C@H](CN(C)S(=O)(=O)c2ccc(F)cc2)OCCCC[C@H](C)Oc2ccc(NC(=O)Nc3ccc(C(F)(F)F)cc3)cc2C1=O` , thank you.
**A:** NO
